# Test system: Ps-Grx3
# Construct: full length, 87 residues (264 bp ORF), class I dithiol Grx with CPYC motif
# Procedure Summary: GR-coupled NADPH oxidation at […] nm, Lineweaver-Burk
# Type: biochemical, Psychrobacter sp. ANT206
# Experimental Conditions: 100 mM Tris-HCl pH 8.0, 25 °C; 1.0 mM GSH, 0.2 mM NADPH, 0.6 μg/mL GR; substrate 0.5-2.0 mM
Quantity Kind: Km (µM)
Entry rule: numbers only, all in µM.

# annotated cases, reported Km shown
## Task Given the entry O=C1O[C@H]([C@@H](O)CO)C(=O)C1=O [DHA, dehydroascorbate] , report its measured Km.
## Result 650

## Task Value lookup for Km; key = OCCSSCCO [HED, 2-Hydroxyethyl disulfide]
## Result 690

Next:
## Task Fill blank: measured Km of the compound N[C@@H](CSSC[C@H](N)C(=O)O)C(=O)O [L-cystine] is ____.
## Result 520

## Task Bench note: what Km did N[C@@H](CSS(=O)(=O)O)C(=O)O [S-sulfocysteine] show?
## Result 790
